# credit: ChEMBL document CHEMBL2163252

target: Growth hormone secretagogue receptor type 1 (Homo sapiens); experiment: Displacement of [125I]ghrelin expressed in LLC-PK1 cells incubated for 1 hr by gamma counting method
Starred links: 1 amine or outer side, 2 acyl side, 3 side chain; linkers in the order of their positions; H or OH if unused. Non-standard residues stand in square brackets, D forms with d. Residues, ends and D or L forms follow the SMILES beside them. dTrp(2-Me) = Cc1[nH]c2ccccc2c1C[C@@H](N)C(=O)O; azaTyr = O=C(N(Cc1ccc(O)cc1)N[*:1])[*:2]; azaPhe = O=C(N(Cc1ccccc1)N[*:1])[*:2]; azaLeu = CC(C)CN(N[*:1])C(=O)[*:2]; azaPro = O=C(N1CCCN1[*:1])[*:2]; Aib = CC(C)(N)C(=O)O; azaGly = NNC(=O)O
Parameter measured: IC50

query: Form field - read-out: IC50; system: Growth hormone secretagogue receptor type 1 (Homo sapiens); submitted item: C[C@H](NC(=O)NNC(=O)[C@@H](Cc1c[nH]c2ccccc12)NC(=O)[C@@H](N)Cc1cnc[nH]1)C(=O)N[C@H](Cc1ccccc1)C(=O)N[C@@H](CCCCN)C(N)=O (H-H[dW][azaGly]A[dF]K-NH2)
result: > 10 µM

query: Then this molecule: CC(C)CN(NC(=O)[C@@H](Cc1c[nH]c2ccccc12)NC(=O)[C@@H](N)Cc1cnc[nH]1)C(=O)N[C@@H](C)C(=O)N[C@H](Cc1ccccc1)C(=O)N[C@@H](CCCCN)C(N)=O (H-H[dW][azaLeu]A[dF]K-NH2)
result: > 10 µM

query: Moving on to the next molecule: CC(C)CN(NC(=O)[C@@H](Cc1c[nH]c2ccccc12)NC(=O)[C@@H](N)Cc1cnc[nH]1)C(=O)N[C@@H](Cc1c[nH]c2ccccc12)C(N)=O
result: 85.6 µM

query: How about this molecule: Cc1[nH]c2ccccc2c1C[C@@H](NC(=O)[C@@H](Cc1c(C)[nH]c2ccccc12)NC(=O)C(C)(C)N)C(N)=O (H-[Aib]-[dTrp(2-Me)]-[dTrp(2-Me)]-NH2)
result: 0.0629 µM

query: Subsequent entry: C[C@H](NC(=O)[C@@H](Cc1c[nH]c2ccccc12)NC(=O)[C@@H](N)Cc1cnc[nH]1)C(=O)N1CCCN1C(=O)N[C@H](Cc1ccccc1)C(=O)N[C@@H](CCCCN)C(N)=O (H-H[dW]A[azaPro][dF]K-NH2)
result: > 10 µM

query: Continue with C[C@H](NC(=O)[C@@H](C)NC(=O)[C@@H](N)Cc1cnc[nH]1)C(=O)NN(Cc1ccccc1)C(=O)N[C@H](Cc1ccccc1)C(=O)N[C@@H](CCCCN)C(N)=O (H-H[dA]A[azaPhe][dF]K-NH2)
result: > 10 µM

query: Another molecule to check: C[C@H](NC(=O)N1CCCN1C(=O)[C@@H](N)Cc1cnc[nH]1)C(=O)N[C@@H](Cc1c[nH]c2ccccc12)C(=O)N[C@H](Cc1ccccc1)C(=O)N[C@@H](CCCCN)C(N)=O
result: > 10 µM

query: Record: CCC(=O)N[C@H](Cc1c[nH]c2ccccc12)C(=O)NN(CC(C)C)C(=O)N[C@@H](Cc1c[nH]c2ccccc12)C(=O)N[C@H](Cc1ccccc1)C(=O)N[C@@H](CCCCN)C(N)=O
result: 3.86 µM

query: Now try CC(C)CN(NC(=O)[C@@H](C)NC(=O)[C@@H](N)Cc1cnc[nH]1)C(=O)N[C@@H](Cc1c[nH]c2ccccc12)C(=O)N[C@H](Cc1ccccc1)C(=O)N[C@@H](CCCCN)C(N)=O (H-H[dA][azaLeu]W[dF]K-NH2) .
result: > 10 µM

query: Here is the next molecule: C[C@H](NC(=O)[C@H](C)NC(=O)N(Cc1ccc(O)cc1)NC(=O)C(N)Cc1cnc[nH]1)C(=O)N[C@H](Cc1ccccc1)C(=O)N[C@@H](CCCCN)C(N)=O (some centres undefined)
result: > 10 µM

query: Query C[C@@H](NC(=O)[C@@H](N)Cc1cnc[nH]1)C(=O)NNC(=O)N[C@@H](Cc1c[nH]c2ccccc12)C(=O)N[C@H](Cc1ccccc1)C(=O)N[C@@H](CCCCN)C(N)=O (H-H[dA][azaGly]W[dF]K-NH2) next
result: > 10 µM

query: // query: C[C@@H](NC(=O)[C@H](Cc1c[nH]c2ccccc12)NC(=O)NNC(=O)[C@@H](Cc1c[nH]c2ccccc12)NC(=O)[C@@H](N)Cc1cnc[nH]1)C(=O)N[C@@H](CCCCN)C(N)=O (H-H[dW][azaGly]W[dA]K-NH2)
result: > 10 µM

query: Same thing, different molecule: C[C@H](NC(=O)[C@@H](Cc1ccccc1)NC(=O)N(Cc1ccccc1)NC(=O)[C@H](C)NC(=O)[C@@H](Cc1c[nH]c2ccccc12)NC(=O)[C@@H](N)Cc1cnc[nH]1)C(N)=O (H-H[dW]A[azaPhe][dF]A-NH2)
result: > 10 µM

query: Also, C[C@H](NC(=O)N(Cc1ccccc1)NC(=O)C(N)Cc1cnc[nH]1)C(=O)N[C@@H](Cc1c[nH]c2ccccc12)C(=O)N[C@H](Cc1ccccc1)C(=O)N[C@@H](CCCCN)C(N)=O (some centres undefined) please.
result: 16.1 µM

query: And CC(C)CN(NC(=O)[C@@H](Cc1c[nH]c2ccccc12)NC(=O)[C@@H](N)Cc1cnc[nH]1)C(=O)N[C@@H](Cc1c[nH]c2ccccc12)C(=O)N[C@H](C)C(=O)N[C@@H](CCCCN)C(N)=O (H-H[dW][azaLeu]W[dA]K-NH2) ?
result: > 10 µM

query: Cool, now C[C@H](N)C(=O)NN(Cc1ccc(O)cc1)C(=O)N[C@@H](C)C(=O)N[C@@H](Cc1c[nH]c2ccccc12)C(=O)N[C@H](Cc1ccccc1)C(=O)N[C@@H](CCCCN)C(N)=O (H-A[azaTyr]AW[dF]K-NH2)
result: > 10 µM

query: Next entry: C[C@H](NC(=O)N(Cc1ccc(O)cc1)NC(=O)[C@@H](N)Cc1cnc[nH]1)C(=O)N[C@@H](Cc1c[nH]c2ccccc12)C(=O)N[C@H](C)C(=O)N[C@@H](CCCCN)C(N)=O (H-H[azaTyr]AW[dA]K-NH2)
result: > 10 µM

query: Follow-up item: CC(C)CN(NC(=O)[C@@H](Cc1c[nH]c2ccccc12)NC(=O)[C@@H]1CCCN1)C(=O)N[C@@H](Cc1c[nH]c2ccccc12)C(=O)N[C@H](Cc1ccccc1)C(=O)N[C@@H](CCCCN)C(N)=O
result: 1.17 µM

query: Proceed to C[C@H](NC(=O)[C@@H](Cc1c[nH]c2ccccc12)NC(=O)[C@@H](N)Cc1cnc[nH]1)C(=O)NN(Cc1ccccc1)C(=O)N[C@H](C)C(=O)N[C@@H](CCCCN)C(N)=O (H-H[dW]A[azaPhe][dA]K-NH2)
result: > 10 µM

* * *

molecular target: Platelet glycoprotein 4 (Rattus norvegicus); experiment: Displacement of photoactivatable [125I]-Tyr-Bpa-Ala-Hexarelin from CD36 in Sprague-Dawley rat cardiac membranes incubated for 60 mins by densitometry
Sequence (Q07969 whole entry): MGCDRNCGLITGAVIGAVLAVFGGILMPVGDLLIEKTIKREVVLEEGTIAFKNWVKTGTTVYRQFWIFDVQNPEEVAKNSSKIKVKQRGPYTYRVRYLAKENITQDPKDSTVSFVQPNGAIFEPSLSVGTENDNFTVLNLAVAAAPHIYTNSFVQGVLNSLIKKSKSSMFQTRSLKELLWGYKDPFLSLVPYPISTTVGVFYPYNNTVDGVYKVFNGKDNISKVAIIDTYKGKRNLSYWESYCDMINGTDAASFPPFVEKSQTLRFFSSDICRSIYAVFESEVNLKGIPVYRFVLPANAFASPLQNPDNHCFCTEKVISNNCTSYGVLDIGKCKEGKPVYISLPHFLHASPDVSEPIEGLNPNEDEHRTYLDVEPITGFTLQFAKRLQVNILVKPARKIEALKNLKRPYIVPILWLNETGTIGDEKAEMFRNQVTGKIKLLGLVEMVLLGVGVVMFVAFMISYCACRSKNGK
pIC50: −log10 of the molar value. Starred links: 1 amine or outer side, 2 acyl side, 3 side chain; linkers in the order of their positions; H or OH if unused. Non-standard residues stand in square brackets, D forms with d. Residues, ends and D or L forms follow the SMILES beside them. azaPhe = O=C(N(Cc1ccccc1)N[*:1])[*:2]
Parameter measured: pIC50

query: Param item = C[C@H](NC(=O)[C@@H](Cc1c[nH]c2ccccc12)NC(=O)[C@@H](N)Cc1c[nH]cn1)C(=O)N[C@@H](Cc1c[nH]c2ccccc12)C(=O)N[C@H](Cc1ccccc1)C(=O)N[C@@H](CCCCN)C(N)=O (H-H[dW]AW[dF]K-NH2) ; retrieve measured pIC50.
result: 5.74

query: // repeat for C[C@H](NC(=O)[C@@H](Cc1c[nH]c2ccccc12)NC(=O)[C@@H](N)Cc1cnc[nH]1)C(=O)NN(Cc1ccccc1)C(=O)N[C@H](C)C(=O)N[C@@H](CCCCN)C(N)=O (H-H[dW]A[azaPhe][dA]K-NH2) and report
result: < 5.00

query: Another compound to look at: C[C@H](NC(=O)[C@H](C)NC(=O)N(Cc1ccccc1)NC(=O)C(N)Cc1cnc[nH]1)C(=O)N[C@H](Cc1ccccc1)C(=O)N[C@@H](CCCCN)C(N)=O (stereo partly drawn)
result: < 5.00

* * *

target: Growth hormone secretagogue receptor type 1 (Homo sapiens, UniProt Q92847); assay: Displacement of [125I]ghrelin expressed in LLC-PK1 cells incubated for 1 hr by gamma counting method; format: cell-based
Sequence (Q92847 whole entry): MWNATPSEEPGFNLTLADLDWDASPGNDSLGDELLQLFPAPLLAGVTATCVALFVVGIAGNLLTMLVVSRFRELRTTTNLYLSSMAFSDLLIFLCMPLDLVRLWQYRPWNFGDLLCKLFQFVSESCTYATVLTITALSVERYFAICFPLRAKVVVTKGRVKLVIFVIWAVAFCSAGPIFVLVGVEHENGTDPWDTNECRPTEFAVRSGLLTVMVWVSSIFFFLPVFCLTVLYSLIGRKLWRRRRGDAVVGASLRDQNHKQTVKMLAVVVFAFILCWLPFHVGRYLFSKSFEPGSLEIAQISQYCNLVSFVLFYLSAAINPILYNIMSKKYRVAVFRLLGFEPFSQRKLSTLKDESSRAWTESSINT
pIC50: −log10 of the molar value. Starred links: 1 amine or outer side, 2 acyl side, 3 side chain; linkers in the order of their positions; H or OH if unused. Non-standard residues stand in square brackets, D forms with d. Residues, ends and D or L forms follow the SMILES beside them. azaPhe = O=C(N(Cc1ccccc1)N[*:1])[*:2]; azaPro = O=C(N1CCCN1[*:1])[*:2]
Give measured pIC50 for each item. Keep answers brief.

query: Record lookup: for Growth hormone secretagogue receptor type 1 (Homo sapiens, UniProt Q92847), what pIC50 belongs to C[C@H](NC(=O)[C@@H](Cc1c[nH]c2ccccc12)NC(=O)[C@@H](N)Cc1cnc[nH]1)C(=O)N[C@@H](Cc1c[nH]c2ccccc12)C(=O)N1CCCN1C(=O)N[C@@H](CCCCN)C(N)=O (H-H[dW]AW[azaPro]K-NH2) ?
result: < 5.00

query: Would you kindly repeat that for CC(C)CN(NC(=O)[C@@H](Cc1c[nH]c2ccccc12)NC(=O)[C@@H](N)Cc1cnc[nH]1)C(=O)N[C@@H](Cc1c[nH]c2ccccc12)C(=O)N[C@H](Cc1ccccc1)C(N)=O ?
result: 5.34

query: // query: C[C@H](NC(=O)N(Cc1ccccc1)NC(=O)[C@@H](N)Cc1cnc[nH]1)C(=O)N[C@@H](Cc1c[nH]c2ccccc12)C(=O)N[C@H](C)C(=O)N[C@@H](CCCCN)C(N)=O (H-H[azaPhe]AW[dA]K-NH2)
result: < 5.00
